Reference source: patent US10513521B2

assay: Cell-based assay, TGFb1 (Cell IC50)
# reported IC50; entries follow
PROPERTY: IC50 (nM)

>  <SMILES_REPR>
CC(C)(O)c1cccc(-c2cnn3cc(-c4ccc(C5CCNCC5)cc4)cnc23)c1

>  <PROPERTY>
IC50

>  <COMPARISON_SIGN>
>

>  <VALUE>
100000

$$$$
>  <SMILES_REPR>
CNS(=O)(=O)c1cccc2c(-c3cnn4cc(-c5ccc(N6[C@H](C)CNC[C@@H]6C)cc5)cnc34)cccc12

>  <PROPERTY>
IC50

>  <COMPARISON_SIGN>
=

>  <VALUE>
2940

$$$$
>  <SMILES_REPR>
CN(C)C(=O)c1ccc(-c2cnn3cc(-c4ccc(N5CCNCC5)cc4)cnc23)c2ccccc12

>  <PROPERTY>
IC50

>  <COMPARISON_SIGN>
=

>  <VALUE>
10600

$$$$
>  <SMILES_REPR>
CC(=O)c1cccc2c(-c3cnn4cc(-c5ccc(N6[C@H](C)CNC[C@@H]6C)cc5)cnc34)cccc12

>  <PROPERTY>
IC50

>  <COMPARISON_SIGN>
=

>  <VALUE>
580

$$$$

====

# reported IC50; entries follow
target: UniProt:Q04771; test: TR-FRET enzymatic ALK kinase assay, ALK2
Sequence (Q04771 21-509): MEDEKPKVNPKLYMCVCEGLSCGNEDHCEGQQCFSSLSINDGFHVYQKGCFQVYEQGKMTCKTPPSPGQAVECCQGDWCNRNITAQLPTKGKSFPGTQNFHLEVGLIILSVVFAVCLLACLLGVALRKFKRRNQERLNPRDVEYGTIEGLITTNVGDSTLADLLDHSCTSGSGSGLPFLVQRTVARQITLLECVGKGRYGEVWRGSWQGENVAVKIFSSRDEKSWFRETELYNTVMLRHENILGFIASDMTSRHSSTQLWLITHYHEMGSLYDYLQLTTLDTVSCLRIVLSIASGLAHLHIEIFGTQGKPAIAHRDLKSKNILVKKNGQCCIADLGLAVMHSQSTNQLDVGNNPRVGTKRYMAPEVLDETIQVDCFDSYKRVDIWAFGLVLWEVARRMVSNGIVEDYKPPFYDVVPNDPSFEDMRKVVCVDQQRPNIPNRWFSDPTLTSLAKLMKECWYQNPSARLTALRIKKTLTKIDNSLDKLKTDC

>  <COMPOUND>
C[C@@H]1CNC[C@H](C)N1c1ccc(-c2cnc3c(-c4ccc(S(=O)(=O)C(F)(F)F)cc4)cnn3c2)cc1 [Compound 45]

>  <COMPARISON_SIGN>
>

>  <IC50 / nM>
10000

$$$$
>  <COMPOUND>
NC(c1ccc(-c2cnn3cc(-c4ccc(OCCN5CCCCC5)cc4)cnc23)cc1)C(F)(F)F (centres unmarked) [Compound 144]

>  <COMPARISON_SIGN>
>

>  <IC50 / nM>
10000

$$$$
>  <COMPOUND>
NS(=O)(=O)c1ccc(-c2cnn3cc(-c4ccc(C5(O)CCNCC5)cc4)cnc23)c2ccccc12 [Compound 66]

>  <COMPARISON_SIGN>
=

>  <IC50 / nM>
68

$$$$
>  <COMPOUND>
C[C@@H]1CNC[C@H](C)N1c1ccc(-c2cnc3c(-c4cccc([S+](=O)([O-])C5CC5)c4)cnn3c2)cc1 [Compound 111]

>  <COMPARISON_SIGN>
=

>  <IC50 / nM>
17

$$$$
>  <COMPOUND>
CC(O)c1cccc(-c2cnn3cc(-c4ccc(OC5(CN6CCCCC6)CC5)cc4)cnc23)c1 (centres unmarked) [Compound 143]

>  <COMPARISON_SIGN>
=

>  <IC50 / nM>
47

$$$$

====

molecular target: ALK6 (Homo sapiens, UniProt O00238); assay: TR-FRET enzymatic ALK kinase assay, ALK6
Sequence (O00238 14-502): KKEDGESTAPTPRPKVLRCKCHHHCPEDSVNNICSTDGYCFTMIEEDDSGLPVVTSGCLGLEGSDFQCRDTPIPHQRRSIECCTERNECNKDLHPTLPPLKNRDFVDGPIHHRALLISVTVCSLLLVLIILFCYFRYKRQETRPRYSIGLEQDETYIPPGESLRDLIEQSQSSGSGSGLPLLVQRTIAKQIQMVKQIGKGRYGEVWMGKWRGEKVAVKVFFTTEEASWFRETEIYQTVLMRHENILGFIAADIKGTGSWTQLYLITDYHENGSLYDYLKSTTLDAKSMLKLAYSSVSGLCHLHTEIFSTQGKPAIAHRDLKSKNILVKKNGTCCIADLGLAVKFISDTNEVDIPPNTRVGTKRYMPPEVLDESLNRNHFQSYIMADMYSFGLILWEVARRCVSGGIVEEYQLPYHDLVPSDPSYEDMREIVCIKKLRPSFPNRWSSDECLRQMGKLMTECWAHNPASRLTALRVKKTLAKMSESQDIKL
pIC50: −log10 of the molar value.
# reported pIC50; entries follow
PROPERTY: pIC50

>  <COMPOUND>
NS(=O)(=O)c1ccc(-c2cnn3cc(-c4ccc(CCN5CCCCC5)cc4)cnc23)c2ccccc12

>  <MEASURED_ON>
ALK6 (Homo sapiens, UniProt O00238)

>  <VALUE>
< 5.00

$$$$
>  <COMPOUND>
CC(O)c1cccc(-c2cnn3cc(-c4ccc(C5CCNCC5)cc4)cnc23)c1 (stereo not shown)

>  <MEASURED_ON>
ALK6 (Homo sapiens, UniProt O00238)

>  <VALUE>
< 5.00

$$$$
>  <COMPOUND>
C[C@@H](O)c1cccc(-c2cnn3cc(-c4ccc(OCCN5CCCCC5)cc4)cnc23)c1

>  <MEASURED_ON>
ALK6 (Homo sapiens, UniProt O00238)

>  <VALUE>
< 5.00

$$$$
>  <COMPOUND>
C[C@H](O)c1cccc(-c2cnn3cc(-c4ccc(OC5(CN6CCC7(CC6)CNC7)CC5)cc4)cnc23)c1

>  <MEASURED_ON>
ALK6 (Homo sapiens, UniProt O00238)

>  <VALUE>
< 5.00

$$$$
>  <COMPOUND>
CC(O)c1cccc2c(-c3cnn4cc(-c5ccc(N6[C@H](C)CNC[C@@H]6C)cc5)cnc34)cccc12 (stereo partly shown)

>  <MEASURED_ON>
ALK6 (Homo sapiens, UniProt O00238)

>  <VALUE>
4.79

$$$$
>  <COMPOUND>
C[C@@H]1CNC[C@H](C)N1c1ccc(-c2cnc3c(-c4cccc(CO)c4)cnn3c2)cc1

>  <MEASURED_ON>
ALK6 (Homo sapiens, UniProt O00238)

>  <VALUE>
< 5.00

$$$$
>  <COMPOUND>
CC(O)c1cccc(-c2cnn3cc(-c4ccc(OC5(CN6CCOCC6)CC5)cc4)cnc23)c1 (stereo not shown)

>  <MEASURED_ON>
ALK6 (Homo sapiens, UniProt O00238)

>  <VALUE>
< 5.00

$$$$
